Entry source: ChEMBL document CHEMBL2429815

# Tested on: Rattus norvegicus
# assay.info: Neurotoxicity in rat assessed as minimal motor impairment by measuring coordination time at 100 mg/kg, ip 30 mins prior to testing by rotarod method
# Type: toxicity, organism-based
# Set-up: dose 100 mg/kg, route intraperitoneal
# test.settings: in vivo, 0.5 h

compound: COc1ccc(C2CC(=O)NC3CCCCC3N2Cc2ccccc2)cc1OC (configuration not stated)
value.units: s
Time: 96.5

compound: O=C1CC(c2ccc([N+](=O)[O-])cc2)N(Cc2ccccc2)C2CCCCC2N1 (configuration not stated)
value.units: s
Time: 93.5

compound: CN(C)CCCN1c2ccccc2CCc2ccc(Cl)cc21 [CLOMIPRAMINE]
value.units: s
Time: 110.83

compound: O=C1CC(c2coc3ccccc3c2=O)N(Cc2ccccc2)C2CCCCC2N1 (configuration not stated)
value.units: s
Time: 97.17

compound: O=C1CC(c2cc3ccccc3nc2Cl)N(Cc2ccccc2)C2CCCCC2N1 (configuration not stated)
value.units: s
Time: 98.33

compound: O=C1CC(c2ccc(Cl)cc2)N(Cc2ccccc2)C2CCCCC2N1 (configuration not stated)
value.units: s
Time: 90.83

compound: O=C1CC(c2ccc(Br)cc2)N(Cc2ccccc2)C2CCCCC2N1 (configuration not stated)
value.units: s
Time: 93.67

compound: O=C1CC(c2cccc([N+](=O)[O-])c2)N(Cc2ccccc2)C2CCCCC2N1 (configuration not stated)
value.units: s
Time: 92.34

compound: O=C1CC(c2ccccc2)N(Cc2ccccc2)C2CCCCC2N1 (configuration not stated)
value.units: s
Time: 100.33

compound: O=C1CC(c2ccccc2Br)N(Cc2ccccc2)C2CCCCC2N1 (configuration not stated)
value.units: s
Time: 91.33

compound: O=C1CC(c2ccccc2Cl)N(Cc2ccccc2)C2CCCCC2N1 (configuration not stated)
value.units: s
Time: 95.17

compound: COc1ccc(C2CC(=O)NC3CCCCC3N2Cc2ccccc2)cc1 (configuration not stated)
value.units: s
Time: 97.83
